# System: Klebsiella aerogenes DSM 30053
# test: growth (OD595) fold change vs plate DMSO controls (fold change (ratio)); higher = more growth
# experimental parameters: incubation time: 27 h, anaerobic, 37 °C
Structures can show the parent of a compound that is named as a salt.
For each entry below, report its growth value.
Give bare numbers.

As a guide, the following entries are already answered.
>>> meas_value("Nc1nc(=O)c2c([nH]1)NC[C@@H](CNc1ccc(C(=O)N[C@@H](CCC(=O)O)C(=O)O)cc1)N2C=O [Folinic acid calcium salt] (20 µM)")
0.993
>>> meas_value("c1ccc(CN(CC2=NCCN2)c2ccccc2)cc1 [Antazoline hydrochloride] (20 µM)")
0.958
>>> meas_value("C[C@@H](CN1CC(=O)NC(=O)C1)N1CC(=O)NC(=O)C1 [Dexrazoxane hydrochloride] (20 µM)")
1.05
>>> meas_value("Cc1c(N(C)CS(=O)(=O)O)c(=O)n(-c2ccccc2)n1C [Dipyrone sodium salt] (20 µM)")
1.07
>>> meas_value("Nc1ccc(S(=O)(=O)Nc2ncccn2)cc1 [Sulfadiazine] (20 µM)")
1.06

Provide each entry's growth from the list below.
1. CCOc1cc(N)c(Cl)cc1C(=O)NCC1CN(Cc2ccc(F)cc2)CCO1 (centres undefined) [Mosapride] (20 µM)
2. OC(CCCN1CCCCC1)(c1ccccc1)c1ccccc1 [Diphenidol hydrochloride] (20 µM)
3. COc1ncnc(NS(=O)(=O)c2ccc(N)cc2)c1OC [Sulfadoxine] (20 µM)
4. Nc1ncnc2c1ncn2[C@@H]1O[C@H](CO)[C@@H](O)[C@@H]1O [Vidarabine] (20 µM)

1: 0.978; 2: 1.01; 3: 1.04; 4: 0.99

* * *

# Tested on: Klebsiella aerogenes DSM 30053
# test: fold change of Histamine concentration vs plate DMSO controls (fold change (ratio)); higher = more amine produced, active = hit call of the paper (significant change in both replicates, either direction)
# experimental parameters: incubation time: 27 h, anaerobic, 37 °C
Structures can show the parent of a compound that is named as a salt.
fold change of Histamine concentration vs 1: at or above is Criterion met, below is Criterion not met.

For orientation, consider the following solved cases.
>>> class_label("NCCc1c[nH]cn1 [Histamine dihydrochloride] (20 µM)")
"Criterion met"
>>> class_label("COc1cc2nc(N(C)CCCNC(=O)C3CCCO3)nc(N)c2cc1OC (stereo not given) [Alfuzosin hydrochloride] (20 µM)")
"Criterion not met"

Turning to the following compound.
Dear colleague, could you confirm whether NC(=O)Cc1cccc(C(=O)c2ccccc2)c1N [Nepafenac] (20 µM) has fold change of Histamine concentration at or above 1?
Criterion not met

* * *

# System: Escherichia coli IAI1
# test: growth (OD595) fold change vs plate DMSO controls (fold change (ratio)); higher = more growth
# experimental parameters: incubation time: 27 h, anaerobic, 37 °C
Where a name gives a salt, the structure may show the parent alone.
assay endpoint: growth
Give bare numbers.

Worked examples, 8 molecules total:
>>> meas_value("Nc1ccc(S(=O)(=O)c2ccc(N)cc2)cc1 [Dapsone] (20 µM)")
1.02
>>> meas_value("CC1=C(/C=C/C(C)=C/C=C/C(C)=C\\C(=O)O)C(C)(C)CCC1 [Isotretinoin] (20 µM)")
0.987
>>> meas_value("CC1(C)S[C@@H]2[C@H](NC(=O)C3(N)CCCCC3)C(=O)N2[C@H]1C(=O)O [Cyclacillin] (20 µM)")
1
>>> meas_value("CC(=O)[C@H]1CC[C@H]2[C@@H]3CCC4=CC(=O)CC[C@]4(C)[C@H]3CC[C@]12C [Progesterone] (20 µM)")
1.02
>>> meas_value("CCN(CC)C(C)CN1c2ccccc2Sc2ccccc21 (centres undefined) [Ethopropazine hydrochloride] (20 µM)")
0.975
>>> meas_value("CC(=O)OC(C)C[N+](C)(C)C (centres undefined) [Methacholine chloride] (20 µM)")
1.02
>>> meas_value("CCN(CC)CCNC(=O)COc1ccc(OC)cc1 [Mefexamide hydrochloride] (20 µM)")
1.01
>>> meas_value("CC(C)c1cc2c(cc1S(=O)(=O)O)[C@@]1(C)CCC[C@@](C)(C(=O)O)[C@@H]1CC2 [Ecabet sodium] (20 µM)")
1

Please examine the following record next.
// recorded growth for CC(=O)c1ccc2c(c1)N(CCCN(C)C)c1ccccc1S2 [Acetopromazine maleate salt] (20 µM) : 1

* * *

# Test system: Klebsiella aerogenes DSM 30053
# test: fold change of Putrescine concentration vs plate DMSO controls (fold change (ratio)); higher = more amine produced, active = hit call of the paper (significant change in both replicates, either direction)
# experimental parameters: incubation time: 27 h, anaerobic, 37 °C
Where a name gives a salt, the structure may show the parent alone.
For each entry below, report its fold change of Putrescine concentration value.
Give bare numbers.

Each compound below has a reported value. Please supply its fold change of Putrescine concentration.
1. COc1ccccc1O [Guaiacol] (20 µM)
2. OC[C@@H](O)[C@@H](O)[C@H](O)[C@@H](O)CO [Sorbitol] (50 µM)
3. NC1CCN(c2c(F)cc3c(=O)c(C(=O)O)cn(C4CC4)c3c2Cl)C1 (stereo not drawn) [Clinafloxacin] (20 µM)
4. C[C@H](CS)C(=O)N1CCC[C@H]1C(=O)O [Captopril] (20 µM)
5. CC(C)(C)NCC(O)CSc1nc(-c2ccc(C(N)=O)s2)cs1 (stereo not drawn) [Arotinolol hydrochloride] (20 µM)
6. Cc1cn[nH]c1 [Fomepizole] (20 µM)
7. N=C(N)Nc1ccc(C(=O)Oc2ccc3cc(C(=N)N)ccc3c2)cc1 [Nafamostat Mesylate] (20 µM)

[0.999, 0.869, 0.647, 1, 1, 0.995, 1.06]

* * *

# Tested on: Escherichia coli IAI1
# test: fold change of Putrescine concentration vs plate DMSO controls (fold change (ratio)); higher = more amine produced, active = hit call of the paper (significant change in both replicates, either direction)
# experimental parameters: incubation time: 27 h, anaerobic, 37 °C
Structures can show the parent of a compound that is named as a salt.
Exercise: state measured fold change of Putrescine concentration for each of the molecules provided.
Answers are plain numbers.

// below: answered molecules
>>> meas_value("CN(C)CCC(c1ccc(Br)cc1)c1ccccn1 (stereo not drawn) [Brompheniramine maleate] (20 µM)")
0.981
>>> meas_value("NC(=O)N1c2ccccc2CC(=O)c2ccccc21 [Oxcarbazepine] (20 µM)")
1
>>> meas_value("CC(=O)/N=c1/sc(S(N)(=O)=O)nn1C [Methazolamide] (20 µM)")
0.979
>>> meas_value("c1ccc(CC2=NCCN2)cc1 [Tolazoline hydrochloride] (20 µM)")
0.996
>>> meas_value("CC(C)(Oc1ccc(C2CC2(Cl)Cl)cc1)C(=O)O (stereo not drawn) [Ciprofibrate] (20 µM)")
1.01
>>> meas_value("Cc1ccc(Nc2c(F)cccc2Cl)c(CC(=O)O)c1 [Lumiracoxib] (20 µM)")
1.02
>>> meas_value("CCC(=O)c1ccc(O)cc1 [Paroxypropione] (20 µM)")
1.01

Then this molecule:
Quick note, fold change of Putrescine concentration for CC1(C)O[C@@H]2[C@@H](CO[C@@]3(COS(N)(=O)=O)OC(C)(C)O[C@@H]23)O1 [Topiramate] (20 µM) landed at 1.01

* * *

# Tested on: Ruminococcus gnavus DSM 108212
# test: growth (OD595) fold change vs plate DMSO controls (fold change (ratio)); higher = more growth
# experimental parameters: incubation time: 27 h, anaerobic, 37 °C
Counter-ions that a name gives are not always drawn.
assay endpoint: growth

>>> meas_value("OC(CCN1CCCC1)(c1ccccc1)C1CCCCC1 (configuration not stated) [Procyclidine hydrochloride] (20 µM)")
0.966
>>> meas_value("CC(C)=CCC1C(=O)N(c2ccccc2)N(c2ccccc2)C1=O [Feprazone] (20 µM)")
1.04
>>> meas_value("CN(C)CCCN1c2ccccc2[S+]([O-])c2ccc(Cl)cc21 (configuration not stated) [Chlorpromazine Sulfoxide] (20 µM)")
1.03
>>> meas_value("Cc1nc2ccccc2n1Cc1ccc(Cl)cc1 [Chlormidazole] (20 µM)")
0.899
>>> meas_value("NC(=O)NS(=O)(=O)c1ccc(N)cc1 [Sulfacarbamide] (20 µM)")
0.94

Batch request: growth per item, same order as input.
1. NS(=O)(=O)c1cc2c(cc1Cl)N=C(CSCc1ccccc1)NS2(=O)=O [Benzthiazide] (20 µM)
2. O=C1NCN(c2ccccc2)C12CCN(CCCC(c1ccc(F)cc1)c1ccc(F)cc1)CC2 [Fluspirilene] (20 µM)
3. O=C(O)Cc1cc(I)c(Oc2ccc(O)c(I)c2)c(I)c1 [Tiratricol] (20 µM)
4. CC(=O)CCCCn1c(=O)c2c(ncn2C)n(C)c1=O [Pentoxifylline] (20 µM)
5. CCN1CCN(C(=O)N[C@@H](C(=O)N[C@@H]2C(=O)N3C(C(=O)O)=C(CSc4nnnn4C)CS[C@H]23)c2ccc(O)cc2)C(=O)C1=O [Cefoperazone dihydrate] (20 µM)
6. Nc1ccn([C@@H]2CS[C@H](CO)O2)c(=O)n1 [Lamivudine] (20 µM)
7. CCCCN1CCCCC1C(=O)Nc1c(C)cccc1C (configuration not stated) [Bupivacaine hydrochloride] (20 µM)

1: 1.08; 2: 1.01; 3: 0.808; 4: 0.929; 5: 0.0225; 6: 0.831; 7: 0.881

List growth for every entry below, keeping the order given.
1. Nc1ncnc2c1ncn2[C@@H]1O[C@H](CO)[C@@H](O)[C@@H]1O [Vidarabine] (20 µM)
2. COCCc1ccc(OCC(O)CNC(C)C)cc1 (stereo not drawn) [Metoprolol-(+)-tartrate salt] (20 µM)
3. COc1ccc(Cl)cc1C(=O)NCCc1ccc(S(=O)(=O)NC(=O)NC2CCCCC2)cc1 [Glibenclamide] (20 µM)
4. CN(C)CCOC(C)(c1ccccc1)c1ccccn1 (configuration not stated) [Doxylamine succinate] (20 µM)
5. Cc1c(C(=O)NN2CCCCC2)nn(-c2ccc(Cl)cc2Cl)c1-c1ccc(Cl)cc1 [Rimonabant] (20 µM)

1. 0.857
2. 1.05
3. 1.04
4. 1.05
5. 1.04
